Reported IC50 values for a set of compounds
Molecular target: central gastrin receptors (Mus musculus)
Sequence (P56481 whole entry): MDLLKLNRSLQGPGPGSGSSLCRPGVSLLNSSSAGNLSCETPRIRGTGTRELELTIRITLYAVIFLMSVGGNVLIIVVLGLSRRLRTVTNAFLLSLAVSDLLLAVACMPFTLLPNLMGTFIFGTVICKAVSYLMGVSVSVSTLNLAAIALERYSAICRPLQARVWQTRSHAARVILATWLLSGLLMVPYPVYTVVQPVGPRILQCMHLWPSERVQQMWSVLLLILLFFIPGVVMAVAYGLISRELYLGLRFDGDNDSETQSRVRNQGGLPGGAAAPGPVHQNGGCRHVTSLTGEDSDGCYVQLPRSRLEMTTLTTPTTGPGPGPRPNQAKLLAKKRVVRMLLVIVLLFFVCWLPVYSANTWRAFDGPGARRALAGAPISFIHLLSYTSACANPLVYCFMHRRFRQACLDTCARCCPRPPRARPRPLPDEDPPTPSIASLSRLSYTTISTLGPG
Test: Inhibition of binding of tritiated pentagastrin to mouse cerebral cortex membranes
Parameters: Mouse cortex tissue was homogenised cold in 20 volumes of tris buffer (pH 7.7); from tissue; host or cells: mouse cerebral cortex membranes; species or system mice
Settings: displacement of pentagastrin tritiate; 40 minutes at 37°C

compound	measurement_unit	IC50
CCC(C)(CC)CCNC(=O)C(CCC(=O)O)NC(=O)c1cc(Cl)ccc1[N+](=O)[O-] (racemic)	µM	0.23
CCCN(CCC)C(=O)C(CCC(=O)O)NC(=O)c1ccccc1 (stereo not shown) [Proglumide, reference compound]	µM	220
CC(C)(C)CCCNC(=O)C(CCC(=O)O)NC(=O)c1cccc(Cl)c1 (racemic)	µM	0.22
CC(C)(C)CCCNC(=O)[C@@H](CCC(=O)O)NC(=O)c1cccc(Cl)c1 [D2]	µM	0.059

This collection of values is drawn from patent EP0498830B1.
